assay: FRG1 promoter luciferase signal modulators, primary screen, FRG1 inhibition for FSHD, cell-based, C2C12 myotubes, firefly/Renilla luciferase, luminescence (AID 1084); conditions: higher = more signal, called active from +8 up or from −8 down
Mark label 0 for z-score values under 0.4, and label 1 for everything at or above.

Incoming: Evaluate CCOC(=O)C[C@H]1[C@H](OC(=O)c2ccc(C(=O)c3ccccc3)cc2)[C@@H](NC(=O)c2ccccc2)c2cc(OCCCO)ccc2N1C(=O)Cc1ccc(OC)cc1 : z-score at minimum 0.4?
Outgoing: label 0

###

assay: CREB reporter modulators under forskolin, primary screen, cell-based, PC12, CRE-LacZ reporter, forskolin-stimulated (AID 1146); conditions: luminescence, 4.5 h, higher = more signal, called active from +8 up or from −8 down;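 further: PC12 cells with 6xCRE LacZ reporter stimulated by forskolin 10 µM; beta-galactosidase reporter signal reflecting CREB driven transcription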
If the reported z-score equals or exceeds -0.7, assign yes (1). If not, assign no (0).

COMPOUND	CATEGORY
[N-]=[N+]=NCc1ccccc1[C@@H]1OC(c2ccc(OCCCO)cc2)=N[C@]1(Cc1ccccc1)C(=O)NCC(O)CO (stereo partly drawn)	no (0)
NCCCCCNC(=O)[C@@H]1C[C@@H]2C(=O)N[C@@H](Cc3ccccc3)C(=O)N2[C@@H]1c1ccc(O)cc1	yes (1)
C=CCC(OC(C)=O)[C@@H]1[C@@H](N(Cc2cc3ccccc3o2)C(=O)c2cccc3ccccc23)c2cc(OCCCO)ccc2N1C(=O)c1ccc(-c2ccccc2)cc1 (stereo partly drawn)	yes (1)
O=C1NC(=O)C2C1C=CC(C(O)c1cccs1)N2Nc1ccc(Cl)cc1Cl (stereo not drawn)	yes (1)
CC(C)NC(=O)[C@@]1(c2ccc([N+](=O)[O-])cc2)CC(=O)N(C2CCCCC2)[C@@H]1c1ccc(CO)cc1I	no (0)
COCCCNC(=O)[C@@]1(C)c2ccccc2C(=O)N(C(C)C)[C@H]1c1ccc(CO)cc1	yes (1)

Incoming: Please indicate if the recorded z-score for [N-]=[N+]=NCc1ccccc1[C@@H]1OC(c2ccc(OCCCO)cc2)=N[C@]1(Cc1ccccc1)C(N)=O meets or exceeds -0.7.
Outgoing: no (0)

Incoming: // inclusive: z-score at least -0.7? input: CCCC#C[Si](O[C@H](CC)c1cn(Cc2cccc(Cl)c2)nn1)(C(C)C)C(C)C
Outgoing: yes (1)

###

biological target: Fibroblast growth factor 10 (Homo sapiens); experiment: FGF10 binders on small-molecule microarrays, primary screen, biochemical, small-molecule microarray, 635 nm fluorescence (AID 1102); details: FGF10 binding, fluorescence 635 nm, higher = more signal
PROPERTY: composite z-score
Form rule: numeric answer, no unit written next to it.

Examples with their reported composite z-score follow.
ITEM SMILES	MEASURED ON	composite z-score
CC[C@@H]1C=C(C(=O)O)[C@H](c2ccc(Br)cc2)N1S(=O)(=O)c1ccc(C)cc1	Fibroblast growth factor 10 (Homo sapiens)	0.102
[N-]=[N+]=Nc1ccccc1[C@H]1OC(c2ccc(OCCCO)cc2)=N[C@@]1(CCS(=O)(=O)c1ccccc1)C(N)=O	Fibroblast growth factor 10 (Homo sapiens)	1.12
COC(=O)C(CC#Cc1ccc2c(c1)[C@]1(C(=O)N2)[C@H](C(=O)Nc2nc3ccccc3s2)[C@H]2C(=O)O[C@H](c3ccccc3)[C@H](c3ccccc3)N2[C@@H]1c1ccccc1OCCO)C(=O)OC	Fibroblast growth factor 10 (Homo sapiens)	0.904
COCCOC(=O)N1C(=O)[C@@]2(c3cc(C#Cc4ccc(OC)cc4)ccc31)[C@H](c1ccc(OCCO)cc1)N1[C@H](c3ccccc3)[C@H](c3ccccc3)OC(=O)[C@H]1[C@@H]2C(=O)N1CCN(c2ncccn2)CC1	Fibroblast growth factor 10 (Homo sapiens)	0.703
C=C(COC)/C(=C/C[C@@H](OC(=O)c1ccncc1)c1ccc(CO)o1)c1cc(C(=O)OC)ccc1OC	Fibroblast growth factor 10 (Homo sapiens)	1.47

Now for another entry.
Incoming: Supply reported composite z-score belonging to this compound: COc1ccc([Si](C)(C)[C@@H]2[C@@H](CC(=O)N3CCC[C@H]3CO)O[C@]3(C(=O)N(c4ccccc4)c4ccccc43)[C@H]2C)cc1
Outgoing: 0.613

FYI, the data here is from PubChem BioAssay.
